target: PARP7 (Homo sapiens, UniProt Q7Z3E1)
Sequence (Q7Z3E1 whole entry): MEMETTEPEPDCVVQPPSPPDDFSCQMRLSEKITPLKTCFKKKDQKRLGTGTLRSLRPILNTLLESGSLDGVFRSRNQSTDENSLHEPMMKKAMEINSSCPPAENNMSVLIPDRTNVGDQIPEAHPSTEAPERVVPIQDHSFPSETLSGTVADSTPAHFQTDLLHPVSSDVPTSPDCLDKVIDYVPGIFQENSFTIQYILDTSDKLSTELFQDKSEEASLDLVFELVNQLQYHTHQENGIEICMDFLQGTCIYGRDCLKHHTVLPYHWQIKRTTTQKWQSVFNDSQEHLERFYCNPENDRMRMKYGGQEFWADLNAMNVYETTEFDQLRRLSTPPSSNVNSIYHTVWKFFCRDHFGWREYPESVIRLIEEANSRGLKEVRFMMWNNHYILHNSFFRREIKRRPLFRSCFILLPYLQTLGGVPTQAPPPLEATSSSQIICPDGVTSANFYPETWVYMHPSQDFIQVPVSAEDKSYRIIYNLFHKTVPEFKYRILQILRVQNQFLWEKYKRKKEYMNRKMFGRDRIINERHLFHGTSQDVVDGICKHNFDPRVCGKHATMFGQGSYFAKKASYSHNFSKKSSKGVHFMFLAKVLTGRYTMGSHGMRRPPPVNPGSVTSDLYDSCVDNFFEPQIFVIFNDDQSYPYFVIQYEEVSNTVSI
measured.quantity: IC50

Some molecules with known IC50 results, for comparison:
C[C@@H]1CN(C(=O)CC2CN(c3cc(C(F)(F)F)c(=O)[nH]n3)c3cc(Cl)ccc3O2)CCN1c1ncc(C#N)cn1 (single isomer, unassigned)    0.1 to 1 µM
O=C(C[C@H]1CN(c2cc(C(F)(F)F)c(=O)[nH]n2)c2ccccc2O1)N1CCN(c2ncc(C(F)(F)F)cn2)CC1    0.1 to 1 µM
C[C@H]1CN(c2n[nH]c(=O)c3cccc(F)c23)C[C@@H](CC(=O)N2CCN(c3ncc(C(F)(F)F)cn3)CC2)O1 (stereo in doubt)    0.1 to 1 µM
O=C(c1cccc(Oc2n[nH]c(=O)c(C(F)(F)F)c2N2CC(C3CC3)C2)c1)N1CCN(c2ncc(C(F)(F)F)cn2)CC1    < 0.1 µM

Moving on to the next molecule.
Entry `N#Cc1cnc(N2CCN(C(=O)c3cncc(Oc4n[nH]c(=O)c(C(F)(F)F)c4N4CC5(C4)CC(F)(F)C5)c3)CC2)nc1` has what IC50? < 0.1 µM
